- System name: ErbB2 with Exon 20 YVMA insertion (HER2-YVMA) (Homo sapiens (Human), UniProt P04626, INS775YVMA)
- Sequence (P04626 other isoform, or with tags, fused parts or gaps ins YVMA behind 775): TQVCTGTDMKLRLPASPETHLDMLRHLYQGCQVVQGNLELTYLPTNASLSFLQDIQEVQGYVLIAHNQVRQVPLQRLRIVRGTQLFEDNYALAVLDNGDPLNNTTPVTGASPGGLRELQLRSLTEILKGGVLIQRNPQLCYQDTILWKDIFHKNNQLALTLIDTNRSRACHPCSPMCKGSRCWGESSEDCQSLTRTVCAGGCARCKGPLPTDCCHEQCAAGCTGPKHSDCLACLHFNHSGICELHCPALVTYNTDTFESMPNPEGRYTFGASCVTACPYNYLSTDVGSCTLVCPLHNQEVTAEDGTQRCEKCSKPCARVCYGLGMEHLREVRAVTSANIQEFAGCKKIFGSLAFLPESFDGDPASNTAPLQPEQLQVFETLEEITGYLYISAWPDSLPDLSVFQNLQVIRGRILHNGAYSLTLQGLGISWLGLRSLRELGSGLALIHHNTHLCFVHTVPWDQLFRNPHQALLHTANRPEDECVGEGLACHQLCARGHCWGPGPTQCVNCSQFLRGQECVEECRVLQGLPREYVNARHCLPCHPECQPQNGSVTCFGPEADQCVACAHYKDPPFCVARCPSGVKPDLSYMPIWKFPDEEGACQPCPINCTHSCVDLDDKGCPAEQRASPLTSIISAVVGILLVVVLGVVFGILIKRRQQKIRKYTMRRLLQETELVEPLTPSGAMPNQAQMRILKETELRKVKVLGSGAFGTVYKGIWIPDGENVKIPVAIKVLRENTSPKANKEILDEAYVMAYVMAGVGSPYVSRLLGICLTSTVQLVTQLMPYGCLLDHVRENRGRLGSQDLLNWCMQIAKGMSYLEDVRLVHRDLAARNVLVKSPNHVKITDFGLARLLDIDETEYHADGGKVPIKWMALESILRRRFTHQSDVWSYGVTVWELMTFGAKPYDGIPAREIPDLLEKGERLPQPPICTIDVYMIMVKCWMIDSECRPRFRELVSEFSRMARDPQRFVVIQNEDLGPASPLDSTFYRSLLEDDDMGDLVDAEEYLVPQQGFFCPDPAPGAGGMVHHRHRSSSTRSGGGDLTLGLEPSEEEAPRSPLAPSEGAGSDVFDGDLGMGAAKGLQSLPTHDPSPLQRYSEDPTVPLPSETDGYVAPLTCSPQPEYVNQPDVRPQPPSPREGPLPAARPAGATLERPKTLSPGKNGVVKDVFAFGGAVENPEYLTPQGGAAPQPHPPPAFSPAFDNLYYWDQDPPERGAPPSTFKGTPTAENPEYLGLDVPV
- Measurement description: Cellular Phosphorylation Assay, Assay 4 (constitutive ErbB2 phosphorylation, NIH 3T3 cells)
- Assay type: cell-based
- Condition notes: ErbB2 YVMA phosphorylation
- Description: NIH 3T3 cells were engineered to express ErbB2 with Exon 20 YVMA insertion (HER2-YVMA (SEQ ID NO: 2); Assay 4) or EGFR wild type (EGFR WT; Assay 5) with constructs obtained from GenScript and grown in DMEM supplemented with 10% fetal bovine serum and 15 μg/ml blasticidin. […] Serially diluted compounds were added to the plates for 1 hour at 37° C./5% CO2. EGFR WT cells were stimulated with 100 ng/ml rEGF for an additional 10 minutes at 37° C./5% CO2. […]
Observation type: IC50 (nM)
Kindly answer with a numeric value in nM, unit omitted.

# annotated cases, reported IC50 shown
C=CC(=O)N1CCCC[C@@H](c2ccc3ncnc(Nc4ccc(Oc5ccc6c(c5)ncn6C)c(C)c4)c3n2)C1 (single isomer, unassigned); 26.3
C=CC(=O)N1CCC(c2nc3c(Nc4ccc(Oc5ccn6ncnc6c5)c(C)c4F)ncnc3cc2OC)CC1; 3950
C=CC(=O)N1C[C@@H]2C[C@H]1C[C@H]2c1ccc2ncnc(Nc3ccc(Oc4ccc5c(c4)ncn5C)c(C)c3F)c2n1 (racemic); 16.7
C=CC(=O)N1CCC(c2ccc3ncnc(Nc4ccc(Oc5ccc6c(c5)ncn6C)c(C)c4)c3n2)C(C)C1 (stereo not drawn); 40
C=CC(=O)N1CCC(Oc2nc3c(Nc4ccc(Oc5ccn6ncnc6c5)c(C)c4F)ncnc3cc2OC)CC1; 7.8

IC50 reading for C=CC(=O)N1CC[C@@H]2[C@H](c3ccc4ncnc(Nc5cc(C)c(Oc6ccc7c(c6)ncn7C)cc5F)c4n3)CC[C@@H]21 (racemic) : 222

----------
- System name: ErbB2 WT (Homo sapiens (Human))
- Sequence (P04626 23-1255): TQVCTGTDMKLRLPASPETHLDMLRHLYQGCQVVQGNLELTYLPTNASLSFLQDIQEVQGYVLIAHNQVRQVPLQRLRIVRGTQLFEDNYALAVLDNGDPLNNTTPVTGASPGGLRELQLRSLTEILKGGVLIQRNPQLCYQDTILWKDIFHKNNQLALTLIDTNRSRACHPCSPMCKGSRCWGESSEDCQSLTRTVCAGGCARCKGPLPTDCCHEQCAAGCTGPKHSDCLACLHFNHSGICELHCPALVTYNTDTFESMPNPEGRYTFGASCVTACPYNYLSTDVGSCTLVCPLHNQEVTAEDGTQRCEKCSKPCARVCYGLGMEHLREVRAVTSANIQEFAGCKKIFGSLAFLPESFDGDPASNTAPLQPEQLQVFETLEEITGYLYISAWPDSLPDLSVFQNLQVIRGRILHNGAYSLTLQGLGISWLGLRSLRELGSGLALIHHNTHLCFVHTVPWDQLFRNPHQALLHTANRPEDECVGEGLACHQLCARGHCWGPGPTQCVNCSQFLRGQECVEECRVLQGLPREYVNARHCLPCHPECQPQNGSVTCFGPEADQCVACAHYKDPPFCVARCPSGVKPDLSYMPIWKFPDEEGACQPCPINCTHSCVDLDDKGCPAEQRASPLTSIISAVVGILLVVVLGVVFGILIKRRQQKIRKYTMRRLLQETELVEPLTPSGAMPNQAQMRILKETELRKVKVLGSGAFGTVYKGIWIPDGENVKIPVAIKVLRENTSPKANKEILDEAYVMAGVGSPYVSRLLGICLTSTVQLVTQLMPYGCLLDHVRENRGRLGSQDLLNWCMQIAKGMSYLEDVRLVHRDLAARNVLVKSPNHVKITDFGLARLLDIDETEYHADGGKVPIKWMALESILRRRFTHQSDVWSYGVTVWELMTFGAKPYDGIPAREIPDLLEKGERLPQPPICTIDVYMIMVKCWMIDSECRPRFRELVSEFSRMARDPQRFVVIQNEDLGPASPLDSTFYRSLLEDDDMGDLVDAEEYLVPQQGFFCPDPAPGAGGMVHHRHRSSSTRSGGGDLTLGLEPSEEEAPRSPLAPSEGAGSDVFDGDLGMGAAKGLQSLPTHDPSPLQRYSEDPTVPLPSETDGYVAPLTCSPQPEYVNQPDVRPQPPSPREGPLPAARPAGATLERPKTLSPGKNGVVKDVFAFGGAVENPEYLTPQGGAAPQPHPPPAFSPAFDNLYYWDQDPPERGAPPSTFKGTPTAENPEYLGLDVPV
- Measurement description: ErbB Enzyme Assay (HTRF KinEASE-TK), Assay 2
- Type: biochemical
- Condition notes: ErbB2 WT enzyme assay
Observation type: pIC50
Scale for pIC50: -log10 of concentration given in mol/L; no unit attached.

C=CC(=O)N1CCN(c2ccc3ncnc(Nc4ccc(Oc5cnc6c(c5)ncn6C)c(C)c4F)c3n2)C[C@H]1C; 6.99
C=CC(=O)N1CCN(c2ccc3ncnc(Nc4ccc(Oc5ccn6ncnc6c5)c(Cl)c4F)c3n2)CC1C(F)F (stereo not shown); 8.14
C=CC(=O)N1CCN(c2ccc3ncnc(Nc4cc(C)c(Oc5ccc6c(c5)ncn6C)cc4F)c3n2)CC12CC2; 7.71
C=CC(=O)N1C[C@H]2C[C@@H]1CN(c1ccc3ncnc(Nc4cc(C)c(Oc5cnc6c(c5)ncn6C)cc4F)c3n1)C2; 6.32
C=CC(=O)N1[C@H](C)CN(c2ccc3ncnc(Nc4cc(C)c(Oc5ccn6ncnc6c5)cc4F)c3n2)C[C@@H]1C; 6.83
C=CC(=O)N1CCN(c2ccc3ncnc(Nc4ccc(Oc5ccn6ncnc6c5)c(Cl)c4F)c3n2)CC12CC2; 8.74

Moving on to another compound below.
pIC50 reading for `C=CC(=O)N(C)[C@H]1CCN(c2ccc3ncnc(Nc4cc(C)c(Oc5ccn6ncnc6c5)cc4F)c3n2)C1` : 7.18

----------
- System name: BCRP (Homo sapiens (Human))
- Sequence (Q9UNQ0 whole entry): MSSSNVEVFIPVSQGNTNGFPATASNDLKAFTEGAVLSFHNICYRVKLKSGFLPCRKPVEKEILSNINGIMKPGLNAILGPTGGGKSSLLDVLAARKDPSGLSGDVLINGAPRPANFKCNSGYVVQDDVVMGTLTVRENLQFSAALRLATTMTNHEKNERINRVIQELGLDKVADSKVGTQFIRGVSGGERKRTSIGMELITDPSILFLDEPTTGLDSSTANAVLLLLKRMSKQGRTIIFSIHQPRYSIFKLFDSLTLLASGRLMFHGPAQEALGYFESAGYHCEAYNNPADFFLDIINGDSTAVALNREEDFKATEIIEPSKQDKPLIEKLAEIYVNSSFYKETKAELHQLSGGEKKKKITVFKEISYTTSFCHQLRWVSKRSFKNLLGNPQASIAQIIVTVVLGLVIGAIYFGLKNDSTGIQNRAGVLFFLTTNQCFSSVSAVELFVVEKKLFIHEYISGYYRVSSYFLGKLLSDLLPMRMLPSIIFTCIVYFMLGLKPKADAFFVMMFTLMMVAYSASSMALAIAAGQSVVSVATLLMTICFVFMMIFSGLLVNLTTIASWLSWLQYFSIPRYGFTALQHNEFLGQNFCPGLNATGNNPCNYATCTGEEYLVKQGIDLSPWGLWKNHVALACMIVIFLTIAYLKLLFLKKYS
- Measurement description: BCRP MDCKII efflux assay (Assay 7)
- Format: in vitro ADME
- Condition notes: dog; efflux ratio Papp(B-A)/Papp(A-B), BCRP MDCKII cells; read-out: Assay 7 Pe Ratio
- Description: Assay conditions included with and without the BCRP-specific inhibitor, KO143, at a concentration of 0.3 μM to ascertain the contribution of BCRP to the efflux value of the test compound. Final organic concentration in the assay was 1%.
Observation type: efflux ratio at 2 h, 1 µM
Response field accepts a number only; no unit should be typed.

# annotated cases, reported efflux ratio at 2 h, 1 µM shown
C=CC(=O)N1C2CC1CN(c1ccc3ncnc(Nc4ccc(Oc5ccn6ncnc6c5)c(Cl)c4F)c3n1)C2; 6.8
C=CC(=O)N1CCN(c2ccc3ncnc(Nc4ccc(Oc5cnc6c(c5)ncn6C)c(Cl)c4F)c3n2)CC1(C)C; 5.2

Moving on to another compound below.
efflux ratio at 2 h, 1 µM reading for C=CC(=O)N1CCC[C@@H](c2ccc3ncnc(Nc4ccc(Oc5ccc6c(c5)ncn6C)c(C)c4)c3n2)C1 (racemic) : 2.7
